Each entry below lists one item and its recorded pKd value.
- MEASUREMENT TARGET: TGGTCA matched site on 250-bp EcoRI/PvuII restriction fragment from plasmid pDEH9
- PROCEDURE DETAILS: Quantitative DNase I footprint titration, matched site
- Type: binding
- TEST SETTINGS: 12 h at 22° C., TKMC buffer pH 7.0, read-out: Equilibrium Dissociation Constants Kd, TGGTCA
pKd (log units): -log10 of the concentration in mol/L.

Request: Give its pKd value. Item: Cmpd 2 (FYPWMKG)
Response: 8.24

Request: Same for Cmpd 3 (FYPAAKG)
Response: 9.07

Source of measurements: patent US20050123936A1
